Recorded measurements of MIC, one per entry
- System: Streptococcus pyogenes
- assayMethodText: Antibacterial activity against inducible macrolide-lincosamide-streptogramin B resistant Streptococcus pyogenes Finland 11 by broth microdilution method
- Type: functional

{"structureNotation": "CC[C@H]1OC(=O)[C@H](C)[C@@H](O[C@H]2C[C@@](C)(OC)[C@@H](OC(=O)CCOCCOCCNc3ccc4c(c3)c(=O)c(C(=O)O)cn4CC)[C@H](C)O2)[C@H](C)[C@@H](O[C@@H]2O[C@H](C)C[C@H](N(C)C)[C@H]2O)[C@](C)(O)C[C@@H](C)CN(C)[C@H](C)[C@@H](O)[C@]1(C)O", "MIC": "≤ 0.125 µg/mL"}
{"structureNotation": "CC[C@H]1OC(=O)[C@H](C)[C@@H](O[C@H]2C[C@@](C)(OC)[C@@H](OC(=O)CCOCCOCCNc3cc4c(=O)c(C(=O)O)cn(CC)c4cc3Cl)[C@H](C)O2)[C@H](C)[C@@H](O[C@@H]2O[C@H](C)C[C@H](N(C)C)[C@H]2O)[C@](C)(O)C[C@@H](C)CN(C)[C@H](C)[C@@H](O)[C@]1(C)O", "MIC": "≤ 0.125 µg/mL"}
{"structureNotation": "CC[C@H]1OC(=O)[C@H](C)[C@@H](O[C@H]2C[C@@](C)(OC)[C@@H](O)[C@H](C)O2)[C@H](C)[C@@H](O[C@@H]2O[C@H](C)C[C@H](N(C)C)[C@H]2O)[C@](C)(O)C[C@@H](C)CN(C)[C@H](C)[C@@H](O)[C@]1(C)O", "MIC": "16 µg/mL"}
